- ASSAY_EXPLANATION: Toxicity liver stage against HepG2, at 10uM
- Type: cell-based
- Parameters: test concentration 10 uM, cell line HepG2-A16-CD81EGFP
- MEASUREMENT_PARAMETERS: human, HepG2-A16-CD81EGFP cells; read-out: INHIBITION
PROPERTY_MEASURED: cytotoxicity at 10 µM (%)
Give the quantity in %, number only.

# annotated cases, reported cytotoxicity at 10 µM shown
{"columns": ["COMPOUND", "UNIT_SYMBOL", "cytotoxicity at 10 µM"],
 "data": [
  ["CSCCC1c2nc[nH]c2CCN1Cc1cc(Cl)ccc1O (configuration not stated)", "%", 23.3],
  ["Cc1c(CN2CCCC(n3c(=O)oc4ccccc43)C2)cnn1C (configuration not stated)", "%", 6.62],
  ["Cn1nc(Cn2cccn2)c2c1CN(C1CCOCC1)C2", "%", 10.1],
  ["O=C(NC[C@H]1OC[C@@H](NCc2ccccc2)[C@@H]1O)Nc1ccc(F)cc1", "%", -10.8]
]}

We next turn to a different compound, shown below.
Request: Fill blank: measured cytotoxicity at 10 µM of the compound Cc1nc(C2(NCC(=O)NCCc3cccs3)CCCC2)no1 is ____.
Response: -2.18

###

- ASSAY_EXPLANATION: Toxicity liver stage against HepG2, at 10uM
- Assay type: cell-based
- Set-up: test concentration 10 uM, cell line HepG2-A16-CD81EGFP
- MEASUREMENT_PARAMETERS: human, HepG2-A16-CD81EGFP cells; read-out: INHIBITION
PROPERTY_MEASURED: cytotoxicity at 10 µM (%)
Give the quantity in %, number only.

{"columns": ["COMPOUND", "cytotoxicity at 10 µM (%)"],
 "data": [
  ["O=C(CC1CC1)N1CCc2ncc(Cn3cncn3)n2CC1", -71.6],
  ["CC(C)=CCC1(CO)CCCN(S(C)(=O)=O)C1 (stereo not drawn)", -5.13],
  ["CCCN(Cc1cccnc1)C1CC(C)(C)NC(C)(C)C1", -4.47]
]}

Request: Fill blank: measured cytotoxicity at 10 µM of the compound O=C(C1CCOC1)N1CCc2ncc(CNc3ccccn3)n2CC1 (stereo not drawn) is ____.
Response: 0.0499

Request: Likewise for COCC1CC2(CCN(Cc3cnn(C)c3)CC2)CN1c1ncccn1 (stereo not drawn) ?
Response: -8.19

Request: Likewise for COc1ccc(NC(=O)c2cccc(OC)c2OC)cc1 ?
Response: 18.5

Request: Likewise for CC(C)NC(=O)Nc1ccc(-c2nc(C(C)C)no2)cc1 ?
Response: -8.56

Request: Likewise for COCCCN(Cc1ccncc1)C(=O)C1COc2ccccc2C1 (stereo not drawn) ?
Response: 11.5

Request: Likewise for Cc1cccc(CN2CC3(CCNCC3)OCC2=O)n1 ?
Response: -21.7

Request: Likewise for CN(C)c1ccc(C(=O)NCC2(c3ccccc3)CCOCC2)cc1 ?
Response: 6.52

Request: Likewise for CN(C)CC1(O)CCCN(Cc2cnc(-c3ccco3)nc2)CC1 (stereo not drawn) ?
Response: -8.58

Request: Likewise for Cc1nc(O)c2c(n1)CCN(Cc1cc(C)sc1C)CC2 ?
Response: -9

Request: Likewise for O=C(CCC1CCCC1)N1CCC(c2ncc3c(n2)CCNC3)CC1 ?
Response: -3.91

Request: Likewise for COC(=O)[C@H]1CN(C(C)=O)CCN1C(C)=O ?
Response: -3.31

Request: Likewise for COC(=O)c1cccc(OCCn2nc(-c3cccs3)oc2=O)c1 ?
Response: -6.56

Request: Likewise for Cc1c[nH]nc1C1CCCN1Cc1ccncc1 (stereo not drawn) ?
Response: 13.1

Request: Likewise for OC1(CN2CCCC2)CCCN(Cc2c[nH]c(CC3CCCC3)n2)C1 (stereo not drawn) ?
Response: -9.09

Request: Likewise for CC1N(C)C(=O)COC12CCN(Cc1nccs1)CC2 (stereo not drawn) ?
Response: -124

Request: Likewise for COc1ccccc1OCCNC(=O)CN1CCN(C)CC1C (stereo not drawn) ?
Response: -12.1

Request: Likewise for O=C(CCc1cc2n(n1)CCCN(C(=O)[C@H]1CCCO1)C2)NC1CC1 ?
Response: 4.78

Request: Likewise for Cn1ccnc1C(=O)N[C@@H]1CN(Cc2ccc(F)cc2)[C@@H]2CCCO[C@@H]21 ?
Response: -111

Request: Likewise for CCCc1noc(CCC(=O)N2CCCC2c2ccsc2)n1 (stereo not drawn) ?
Response: -11

Request: Likewise for CCOc1ncccc1NC(=O)c1sccc1C ?
Response: -16.1

Origin of the recorded values: ChEMBL document CHEMBL4513216
